targetSystem: wild type human RORγt LBD fused to the DNA binding domain of the GAL4 protein (Homo sapiens)
Sequence (P51449 258-518): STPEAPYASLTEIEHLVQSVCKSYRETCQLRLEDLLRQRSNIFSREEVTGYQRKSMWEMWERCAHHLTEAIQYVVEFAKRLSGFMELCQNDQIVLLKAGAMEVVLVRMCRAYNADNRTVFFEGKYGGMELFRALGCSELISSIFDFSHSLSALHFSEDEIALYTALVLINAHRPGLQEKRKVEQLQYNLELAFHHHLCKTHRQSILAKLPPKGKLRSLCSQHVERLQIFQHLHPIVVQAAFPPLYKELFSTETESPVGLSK
assayExplanation: RORγt reporter assay
cond: HEK293T cells
metricName: IC50 (nM)
Give bare numbers, in nM.

The measured IC50 associated with CC(C)(C)OC(=O)N(c1ccccc1)c1c(Cl)nc2ccc(C(O)(c3cccnc3)c3cccc(Cl)c3)cc2c1Cl (stereo not shown) reads 1400
